Data credit: patent US10774071B2

# measured_on: PD-L1 (Homo sapiens (Human), UniProt Q9NZQ7)
# Sequence (Q9NZQ7 19-238): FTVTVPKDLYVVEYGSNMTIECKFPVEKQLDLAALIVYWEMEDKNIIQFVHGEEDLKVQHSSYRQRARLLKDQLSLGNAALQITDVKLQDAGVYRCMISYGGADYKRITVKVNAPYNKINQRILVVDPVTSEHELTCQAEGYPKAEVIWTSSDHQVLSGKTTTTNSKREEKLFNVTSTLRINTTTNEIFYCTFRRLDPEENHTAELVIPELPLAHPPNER
# Sequence (Q9NZQ7 19-238): as above
# assay_notes: PD-L1/PD-L1 dimerization biochemical protein-protein interaction assay (ALPHA)
# Format: binding
# condition: 0.5 nM His tagged PD-L1 and 0.5 nM FLAG tagged PD-L1, Table 4A, read-out: AC50 PDL1 Dimer 1 nM
Param label: returns criterion met when AC50 < 10 nM, returns criterion not met otherwise, including exact equality.

- mol: "COc1nc(-c2cccc(-c3cccc4c3CC[C@@H]4Nc3nc(OC)c(CNC[C@@H]4CCC(=O)N4)cc3Cl)c2Cl)ccc1CNC[C@@H]1CCC(=O)N1"
  class_assignment: "criterion not met"
- mol: "COc1nc(-c2cccc(-c3cccc4c3CC[C@@H]4Nc3nc(OC)c(CN[C@@H](C)C(N)=O)cc3C(F)(F)F)c2Cl)ccc1CNC[C@@H]1CCC(=O)N1"
  class_assignment: "criterion not met"
- mol: "COc1cc(N[C@H]2CCc3c(-c4cccc(-c5ccc(CNC[C@@H]6CCC(=O)N6)c(OC)n5)c4Cl)cccc32)c(Cl)cc1CN1CC[C@H](C(=O)O)C1"
  class_assignment: "criterion not met"
- mol: "COc1cc(N[C@H]2CCc3c(-c4cccc(-c5ccc(CNC[C@@H]6CCC(=O)N6)c(OC)n5)c4Cl)cccc32)c(C(F)(F)F)nc1CNC1(C(=O)O)CC1"
  class_assignment: "criterion met"
- mol: "COc1cc(N[C@H]2CCc3c(-c4cccc(-c5ccc(CNC[C@@H]6CCC(=O)N6)c(OC)n5)c4Cl)cccc32)c(C(F)(F)F)cc1CN1CC[C@@H](C(=O)O)C1"
  class_assignment: "criterion not met"
- mol: "COc1nc(-c2cccc(-c3cccc4c3CC[C@@H]4Nc3nc(OC)c(CN4CC(C)(O)C4)cc3Cl)c2Cl)ccc1CNC[C@@H]1CCC(=O)N1"
  class_assignment: "criterion not met"
- mol: "COc1cc(-c2cccc(-c3cccc4c3CC[C@@H]4Nc3nc(OC)c(CN4CC[C@@H](C(=O)O)C4)nc3C(F)(F)F)c2Cl)cc(F)c1CNC[C@@H]1CCC(=O)N1"
  class_assignment: "criterion met"
- mol: "COc1nc(-c2cccc(-c3cccc4c3CC[C@@H]4Nc3nc(OC)c(CN[C@H](C(=O)O)C4CC4)nc3C(F)(F)F)c2Cl)ccc1CNC[C@@H]1CCC(=O)N1"
  class_assignment: "criterion met"

Query: Hello, I'm reviewing records and need to know if AC50 of "COc1nc(-c2cccc(-c3cccc4c3CC[C@@H]4Nc3nc(OC)c(CN4CC5(C(=O)O)CCC4CC5)cc3C(F)(F)F)c2Cl)ccc1CNC[C@@H]1CCC(=O)N1" is below 10 nM. Could you check?
Result: criterion not met

Query: Hello, I'm reviewing records and need to know if AC50 of "COc1nc(-c2cccc(-c3cccc4c3CC[C@@H]4Nc3nc(OC)c(CN4CC[C@H](C(=O)O)C4)cc3C(F)(F)F)c2Cl)ccc1CNC[C@@H]1CCC(=O)N1" is below 10 nM. Could you check?
Result: criterion not met

Query: Hello, I'm reviewing records and need to know if AC50 of "COc1nc(-c2cccc(-c3cccc4c3CC[C@@H]4Nc3nc(OC)c(CN(C)CC(=O)O)cc3C(F)(F)F)c2Cl)ccc1CNC[C@@H]1CCC(=O)N1" is below 10 nM. Could you check?
Result: criterion not met

----------
# measured_on: PD-L1 (Homo sapiens (Human), UniProt Q9NZQ7)
# assay_notes: PD-L1/PD-L1 dimerization biochemical protein-protein interaction assay (ALPHA)
# Type: binding
# condition: 0.5 nM His tagged PD-L1 and 0.5 nM FLAG tagged PD-L1, Table 4A, read-out: AC50 PDL1 Dimer 1 nM
measure_name: AC50 (nM)
Just the number in nM, nothing appended.

Worked set:
- compound: "COc1cc(N[C@H]2CCc3c(-c4cccc(-c5ccc(CNC[C@@H]6CCC(=O)N6)c(OC)n5)c4Cl)cccc32)c(Cl)cc1CN1CC[C@@H](C(=O)O)C1"
  unit_label: "nM"
  experimental_result: 42.1
- compound: "COc1nc(-c2cccc(-c3cccc4c3CC[C@@H]4Nc3nc(OC)c(CN4CCCC[C@]4(C)C(=O)O)cc3C(F)(F)F)c2Cl)ccc1CN1CC(C)(O)C1"
  unit_label: "nM"
  experimental_result: 106
- compound: "COc1nc(-c2cccc(-c3cccc4c3CC[C@@H]4Nc3nc(OC)c(CNCC(=O)O)cc3C(F)(F)F)c2Cl)ccc1CNC[C@H]1C[C@](C)(O)C1"
  unit_label: "nM"
  experimental_result: 31.8
- compound: "COc1nc(-c2cccc(-c3cccc4c3CC[C@@H]4Nc3nc(OC)c(CNC4(C(=O)O)CCC4)cc3C(F)(F)F)c2Cl)ccc1CNCC1CCC(=O)N1 (some centres unmarked)"
  unit_label: "nM"
  experimental_result: 8.17

So, "COc1nc(-c2cccc(-c3cccc4c3CC[C@@H]4Nc3nc(OC)c(CN[C@@H](C)C(=O)O)nc3C(F)(F)F)c2Cl)ccc1CNC[C@H]1C[C@H](O)C1" ? Its AC50 was 13.5

So, "COC(=O)C12CCC(CC1)N(Cc1nc(C(F)(F)F)c(N[C@H]3CCc4c(-c5cccc(-c6ccc(CNC[C@@H]7CCC(=O)N7)c(OC)n6)c5Cl)cccc43)nc1OC)C2" ? Its AC50 was 84.9

So, "COc1nc(-c2cccc(-c3cccc4c3CC[C@@H]4Nc3nc(OC)c(CN(C)[C@@H](C)C(=O)O)nc3C(F)(F)F)c2Cl)ccc1CNC[C@@H]1CCC(=O)N1" ? Its AC50 was 3.97

So, "COc1nc(-c2cccc(-c3cccc4c3CC[C@@H]4Nc3nc(OC)c(CN4CCC[C@]4(C)C(=O)O)cc3C(F)(F)F)c2Cl)ccc1CNC[C@@H]1CCC(=O)N1" ? Its AC50 was 16.9

So, "COc1nc(-c2cccc(-c3cccc4c3CC[C@@H]4Nc3nc(OC)c(CN[C@H](C(=O)O)C4CC4)cc3C(F)(F)F)c2Cl)ccc1CN[C@H]1C[C@](C)(O)C1" ? Its AC50 was 21.6

So, "COc1cc(-c2cccc(-c3cccc4c3CC[C@@H]4Nc3nc(OC)c(CNC4(C(=O)O)CC4)nc3C(F)(F)F)c2Cl)cc(F)c1CNC[C@@H]1CCC(=O)N1" ? Its AC50 was 12.5

So, "COc1nc(-c2cccc(-c3cccc4c3CC[C@@H]4Nc3nc(OC)c(CN[C@@H](C)C(=O)O)cc3C(F)(F)F)c2Cl)ccc1CN1CC(C)(O)C1" ? Its AC50 was 34.4

So, "COc1nc(-c2cccc(-c3cccc4c3CC[C@@H]4Nc3nc(OC)c(CN4CCC5CC4(C(=O)O)C5)cc3C(F)(F)F)c2Cl)ccc1CNC[C@@H]1CCC(=O)N1" ? Its AC50 was 7.75

So, "COc1nc(-c2cccc(-c3cccc4c3CC[C@@H]4Nc3nc(OC)c(CN4CC[C@@](C)(C(=O)O)C4)cc3C(F)(F)F)c2Cl)ccc1CNC[C@@H]1CCC(=O)N1" ? Its AC50 was 13.5

So, COc1nc(-c2cccc(-c3cccc4c3CC[C@@H]4Nc3nc(OC)c(CN4CC5CC(C(=O)O)C4C5)nc3C(F)(F)F)c2Cl)ccc1CNC[C@@H]1CCC(=O)N1 (some centres unmarked) ? Its AC50 was 23.1

So, "COc1nc(-c2cccc(-c3cccc4c3CC[C@@H]4Nc3nc(OC)c(CN[C@@H](C)C(=O)O)nc3C(F)(F)F)c2Cl)ccc1CN1CC(C)(O)C1" ? Its AC50 was 9.07

So, "COc1nc(-c2cccc(-c3cccc4c3CC[C@@H]4Nc3nc(OC)c(CNCC(=O)O)cc3C(F)(F)F)c2Cl)ccc1CN[C@H]1C[C@](C)(O)C1" ? Its AC50 was 32.9

----------
# measured_on: PD-L1 (Homo sapiens (Human), UniProt Q9NZQ7)
# assay_notes: PD-L1/PD-L1 dimerization biochemical protein-protein interaction assay (ALPHA)
# Format: binding
# condition: 0.5 nM His tagged PD-L1 and 0.5 nM FLAG tagged PD-L1, Table 4A, read-out: AC50 PDL1 Dimer 1 nM
measure_name: AC50
Returns: string containing the numeric result and its unit.

- molecule: "COc1nc(-c2cccc(-c3cccc4c3CC[C@@H]4Nc3nc(OC)c(CN4CCC5CC4(C(=O)O)C5)cc3C(F)(F)F)c2Cl)ccc1CN1CC(C)(O)C1 [A-56]"
  AC50: "11.8 nM"
- molecule: "COc1nc(-c2cccc(-c3cccc4c3CC[C@@H]4Nc3nc(OC)c(CN4CC[C@@H](C(=O)O)C4)nc3C(F)(F)F)c2Cl)ccc1CNC[C@@H]1CCC(=O)N1 [A-19]"
  AC50: "26.1 nM"

In the following, a different molecule is considered.
AC50 for PD-L1 (Homo sapiens (Human), UniProt Q9NZQ7) with input COc1nc(-c2cccc(-c3cccc4c3CC[C@@H]4Nc3nc(OC)c(CNCC(=O)O)nc3C(F)(F)F)c2Cl)ccc1CN1CC(C)(O)C1 [A-75] equals 18.1 nM
